Entries and their MIC values follow.
System: B. anthracis GFP sterne vegetative cells
Assay: microbe, parasite or virus in culture
Assay type: cell-based
Conditions: Bacillus anthracis, read-out: MIC B. anthracis vegetative cells

molecule	reported
N=C(N)c1ccc(-c2[nH]c3cc(C(=N)N)ccc3c2N)cc1	> 14.6 µg/mL

Please provide the recorded MIC for "C(=C\c1cc2ccc(C3=NCCN3)cc2o1)/c1cc2cc(C3=NCCN3)ccc2[nH]1" , tested on B. anthracis GFP sterne vegetative cells.
> 18.7 µg/mL

Please provide the recorded MIC for "N=C(N)c1ccc2oc(CCc3cc4cc(C(=N)N)ccc4o3)cc2c1" , tested on B. anthracis GFP sterne vegetative cells.
> 16.8 µg/mL

Please provide the recorded MIC for "N=C(N)c1ccc(-n2nc3ccc(C(=N)N)cc3n2)cc1" , tested on B. anthracis GFP sterne vegetative cells.
> 14.1 µg/mL

Please provide the recorded MIC for "N=C(N)c1ccc(NC(=O)c2cc3ccc(C(=N)N)cc3o2)cc1" , tested on B. anthracis GFP sterne vegetative cells.
> 15.8 µg/mL

Please provide the recorded MIC for "C(=C\c1cc2ccc(C3=NCCN3)cc2[nH]1)/c1ccc(C2=NCCN2)cc1" , tested on B. anthracis GFP sterne vegetative cells.
> 17.1 µg/mL

Please provide the recorded MIC for "Cc1cc2nc(C=Cc3nc4cc(C)c(C)cc4[nH]3)[nH]c2cc1C" , tested on B. anthracis GFP sterne vegetative cells.
> 12.6 µg/mL
